Target: alpha 2B receptor (Homo sapiens, UniProt P18089)
Construct: expressed in transfected cells; host or cells: NIH-3T3
Sequence (P18089 whole entry): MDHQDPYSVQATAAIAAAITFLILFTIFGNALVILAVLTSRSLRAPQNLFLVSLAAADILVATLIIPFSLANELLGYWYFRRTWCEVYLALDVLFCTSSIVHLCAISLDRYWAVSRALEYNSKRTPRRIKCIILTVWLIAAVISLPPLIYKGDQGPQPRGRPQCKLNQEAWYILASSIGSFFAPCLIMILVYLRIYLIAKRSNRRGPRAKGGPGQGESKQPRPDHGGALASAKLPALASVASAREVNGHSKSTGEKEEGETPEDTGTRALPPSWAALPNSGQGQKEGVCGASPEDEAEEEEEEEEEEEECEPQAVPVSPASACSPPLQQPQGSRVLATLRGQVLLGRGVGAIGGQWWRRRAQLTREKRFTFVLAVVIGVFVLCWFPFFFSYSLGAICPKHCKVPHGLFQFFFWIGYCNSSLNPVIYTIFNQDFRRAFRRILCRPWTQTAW
Test: RSAT assay (Receptor Selection and Amplification Technology), Alpha 2B
Assay type: cell-based
Conditions: RSAT; value in parentheses; ratio of maximal effect to that of brimonidine; Table 2
Could you please report measured Intrinsic Activity efficacy Alpha 2B for the items listed next?
Give bare numbers.

Worked cases, Intrinsic Activity efficacy Alpha 2B given:
Reported Intrinsic Activity efficacy Alpha 2B for Clc1cccc(C(Cc2cccnc2Cl)NC2=NCCO2)c1 (stereo not drawn) was 1.01

Reported Intrinsic Activity efficacy Alpha 2B for Cc1cccc(C(Cc2ccccn2)NC2=NCCO2)c1C (stereo not drawn) was 0.93

Reported Intrinsic Activity efficacy Alpha 2B for COc1cccc(C(Cc2cccnc2)NC2=NCCO2)c1 (stereo not drawn) was 0.65

Reported Intrinsic Activity efficacy Alpha 2B for Cc1cccc(C(Cc2cccnc2Cl)NC2=NCCO2)c1 (stereo not drawn) was 0.88

Reported Intrinsic Activity efficacy Alpha 2B for Clc1ncccc1CC(NC1=NCCO1)c1cccc(Br)c1 (stereo not drawn) was 1.01

// each listed compound needs a value for Intrinsic Activity efficacy Alpha 2B
1. Cc1cccc(C(Cc2cncc(Br)c2C)NC2=NCCO2)c1 (stereo not drawn)
2. Clc1cccc(C(Cc2cccnc2Br)NC2=NCCO2)c1 (stereo not drawn)
3. Cc1cncc(CC(NC2=NCCO2)c2cccc(Cl)c2)c1 (stereo not drawn)
4. Cc1cccc(C(Cc2cncc(C)c2C)NC2=NCCO2)c1 (stereo not drawn)
5. c1ccc(C(Cc2cccnc2)NC2=NCCN2)cc1 (stereo not drawn)
6. Cc1c(Br)cncc1CC(NC1=NCCO1)c1cccc(Cl)c1 (stereo not drawn)

Ans.
1. 1.02
2. 1.05
3. 1.12
4. 1.11
5. 0.74
6. 1.35

Reported Intrinsic Activity efficacy Alpha 2B for Fc1ncccc1CC(NC1=NCCO1)c1cccc(Cl)c1 (stereo not drawn) was 0.81

* * *

Could you please report measured Intrinsic Activity efficacy Alpha 2B for the items listed next?
Target: alpha 2B receptor (Homo sapiens, UniProt P18089)
Construct: expressed in transfected cells; host or cells: NIH-3T3
Assay: RSAT assay (Receptor Selection and Amplification Technology), Alpha 2B
Format: cell-based
Details: RSAT; value in parentheses; ratio of maximal effect to that of brimonidine; Table 2
One number for each entry.

// each listed compound needs a value for Intrinsic Activity efficacy Alpha 2B
1. Clc1cccc(C(Cc2cccnc2)NC2=NCCO2)c1Cl (stereo not shown)
2. Fc1cccc(C(Cc2cccnc2Cl)NC2=NCCO2)c1 (stereo not shown)
3. Cc1cccc(C(Cc2cccnc2)NC2=NCCO2)c1 (stereo not shown)
4. Cc1cncc(CC(NC2=NCCO2)c2cccc(C)c2)c1 (stereo not shown)
5. Cc1cncc(CC(NC2=NCCO2)c2cccc(Cl)c2)c1C (stereo not shown)

Ans.
[0.89, 0.87, 1.24, 1.1, 0.9]

// each listed compound needs a value for Intrinsic Activity efficacy Alpha 2B
1. Cc1c(Cl)cncc1CC(NC1=NCCO1)c1cccc(Cl)c1 (stereo not shown)
2. c1ccc(C(Cc2cccnc2)NC2=NCCO2)cc1 (stereo not shown)

Ans.
[1.08, 0.76]

* * *

Could you please report measured Intrinsic Activity efficacy Alpha 2B for the items listed next?
Biological target: alpha 2B receptor (Homo sapiens, UniProt P18089)
Construct: expressed in transfected cells; host or cells: NIH-3T3
Experiment: RSAT assay (Receptor Selection and Amplification Technology), Alpha 2B
Assay type: cell-based
Conditions: RSAT; value in parentheses; ratio of maximal effect to that of brimonidine; Table 1
Experimental: The RSAT assay measures a receptor-mediated loss of contact inhibition that results in selective proliferation of receptor-containing cells in a mixed population of confluent cells. The increase in cell number is assessed with an appropriate transfected marker gene such as β-galactosidase, the activity of which can be easily measured in a 96-well format. Receptors that activate the G protein, Gq, elicit this response. […]
Numbers only.

Reported Intrinsic Activity efficacy Alpha 2B for c1ccc(C(Cc2cnccn2)N=C2NCCN2)cc1 (centres unmarked) was 0.84

Reported Intrinsic Activity efficacy Alpha 2B for Fc1cccc(C(Cc2ccncc2)N=C2NCCN2)c1 (centres unmarked) was 0.68

Reported Intrinsic Activity efficacy Alpha 2B for Cc1cccc(C(Cc2ccncc2)N=C2NCCN2)c1C (centres unmarked) was 1.15

Reported Intrinsic Activity efficacy Alpha 2B for c1ccc(C(Cc2cnccn2)/N=C2/NCCO2)cc1 (centres unmarked) was 1.0

Next, consider the following compound.
Reported Intrinsic Activity efficacy Alpha 2B for c1ccc(C(Cc2ccncc2)/N=C2/NCCO2)cc1 (centres unmarked) was 1.09
